test system: Pseudomonas aeruginosa; assay: Antibacterial activity against Pseudomonas aeruginosa ATCC 27853 assessed as diameter of growth inhibition zone at 100 ug/ml after 24 hr by cup-plate method; format: functional; conditions: ATCC 27853, 24 h, read-out: DIZ

[
  {
    "compoundSmiles": "CCOc1ccc(-n2c(S)nnc2Sc2nnc(-c3ccccc3)n2-c2ccccc2)cc1",
    "zone of inhibition at 100 µg/mL / mm": 5
  },
  {
    "compoundSmiles": "CC(C)n1c(S)nnc1CSc1nnc(-c2ccccc2)n1-c1ccccc1",
    "zone of inhibition at 100 µg/mL / mm": 5
  },
  {
    "compoundSmiles": "CC(C)n1c(S)nnc1Sc1nnc(-c2ccccc2)n1-c1ccccc1",
    "zone of inhibition at 100 µg/mL / mm": 5
  },
  {
    "compoundSmiles": "COc1ccc(-n2c(S)nnc2CSc2nnc(-c3ccccc3)n2-c2ccccc2)cc1",
    "zone of inhibition at 100 µg/mL / mm": 21
  },
  {
    "compoundSmiles": "CC1(C)S[C@@H]2[C@H](NC(=O)[C@H](N)c3ccccc3)C(=O)N2[C@H]1C(=O)O",
    "zone of inhibition at 100 µg/mL / mm": 28
  },
  {
    "compoundSmiles": "Sc1nnc(CSc2nnc(-c3ccccc3)n2-c2ccccc2)n1-c1ccccc1",
    "zone of inhibition at 100 µg/mL / mm": 16
  },
  {
    "compoundSmiles": "Fc1ccc(-n2c(S)nnc2Sc2nnc(-c3ccccc3)n2-c2ccccc2)cc1",
    "zone of inhibition at 100 µg/mL / mm": 16
  },
  {
    "compoundSmiles": "Sc1nnc(Sc2nnc(-c3ccccc3)n2-c2ccccc2)n1-c1ccc(Cl)cc1",
    "zone of inhibition at 100 µg/mL / mm": 16
  },
  {
    "compoundSmiles": "Fc1ccc(-n2c(S)nnc2CSc2nnc(-c3ccccc3)n2-c2ccccc2)cc1",
    "zone of inhibition at 100 µg/mL / mm": 21
  },
  {
    "compoundSmiles": "Sc1nnc(CSc2nnc(-c3ccccc3)n2-c2ccccc2)n1-c1ccc(Cl)cc1",
    "zone of inhibition at 100 µg/mL / mm": 16
  },
  {
    "compoundSmiles": "COc1ccc(-n2c(S)nnc2Sc2nnc(-c3ccccc3)n2-c2ccccc2)cc1",
    "zone of inhibition at 100 µg/mL / mm": 5
  },
  {
    "compoundSmiles": "Sc1nnc(Sc2nnc(-c3ccccc3)n2-c2ccccc2)n1-c1ccccc1",
    "zone of inhibition at 100 µg/mL / mm": 5
  },
  {
    "compoundSmiles": "CCOc1ccc(-n2c(S)nnc2CSc2nnc(-c3ccccc3)n2-c2ccccc2)cc1",
    "zone of inhibition at 100 µg/mL / mm": 5
  }
]

====

zone of inhibition at 100 µg/mL values by entry
system: Escherichia coli; assay: Antibacterial activity against Escherichia coli ATCC 25922 assessed as diameter of growth inhibition zone at 100 ug/ml after 24 hr by cup-plate method; assay type: functional; details: ATCC 25922, 24 h, read-out: DIZ

[
  {
    "compoundSmiles": "COc1ccc(-n2c(S)nnc2Sc2nnc(-c3ccccc3)n2-c2ccccc2)cc1",
    "testedTarget": "Escherichia coli",
    "zone of inhibition at 100 µg/mL (mm)": 5
  },
  {
    "compoundSmiles": "Fc1ccc(-n2c(S)nnc2Sc2nnc(-c3ccccc3)n2-c2ccccc2)cc1",
    "testedTarget": "Escherichia coli",
    "zone of inhibition at 100 µg/mL (mm)": 16
  },
  {
    "compoundSmiles": "Sc1nnc(Sc2nnc(-c3ccccc3)n2-c2ccccc2)n1-c1ccc(Cl)cc1",
    "testedTarget": "Escherichia coli",
    "zone of inhibition at 100 µg/mL (mm)": 16
  },
  {
    "compoundSmiles": "CCOc1ccc(-n2c(S)nnc2CSc2nnc(-c3ccccc3)n2-c2ccccc2)cc1",
    "testedTarget": "Escherichia coli",
    "zone of inhibition at 100 µg/mL (mm)": 5
  },
  {
    "compoundSmiles": "CC(C)n1c(S)nnc1CSc1nnc(-c2ccccc2)n1-c1ccccc1",
    "testedTarget": "Escherichia coli",
    "zone of inhibition at 100 µg/mL (mm)": 5
  },
  {
    "compoundSmiles": "CC1(C)S[C@@H]2[C@H](NC(=O)[C@H](N)c3ccccc3)C(=O)N2[C@H]1C(=O)O",
    "testedTarget": "Escherichia coli",
    "zone of inhibition at 100 µg/mL (mm)": 28
  },
  {
    "compoundSmiles": "COc1ccc(-n2c(S)nnc2CSc2nnc(-c3ccccc3)n2-c2ccccc2)cc1",
    "testedTarget": "Escherichia coli",
    "zone of inhibition at 100 µg/mL (mm)": 21
  },
  {
    "compoundSmiles": "Sc1nnc(CSc2nnc(-c3ccccc3)n2-c2ccccc2)n1-c1ccc(Cl)cc1",
    "testedTarget": "Escherichia coli",
    "zone of inhibition at 100 µg/mL (mm)": 16
  },
  {
    "compoundSmiles": "CC(C)n1c(S)nnc1Sc1nnc(-c2ccccc2)n1-c1ccccc1",
    "testedTarget": "Escherichia coli",
    "zone of inhibition at 100 µg/mL (mm)": 5
  },
  {
    "compoundSmiles": "Sc1nnc(Sc2nnc(-c3ccccc3)n2-c2ccccc2)n1-c1ccccc1",
    "testedTarget": "Escherichia coli",
    "zone of inhibition at 100 µg/mL (mm)": 5
  },
  {
    "compoundSmiles": "Fc1ccc(-n2c(S)nnc2CSc2nnc(-c3ccccc3)n2-c2ccccc2)cc1",
    "testedTarget": "Escherichia coli",
    "zone of inhibition at 100 µg/mL (mm)": 21
  },
  {
    "compoundSmiles": "CCOc1ccc(-n2c(S)nnc2Sc2nnc(-c3ccccc3)n2-c2ccccc2)cc1",
    "testedTarget": "Escherichia coli",
    "zone of inhibition at 100 µg/mL (mm)": 5
  },
  {
    "compoundSmiles": "Sc1nnc(CSc2nnc(-c3ccccc3)n2-c2ccccc2)n1-c1ccccc1",
    "testedTarget": "Escherichia coli",
    "zone of inhibition at 100 µg/mL (mm)": 16
  }
]

====

zone of inhibition at 100 µg/mL values by entry
system: Bacillus subtilis; test: Antibacterial activity against Bacillus subtilis ATCC 6633 assessed as diameter of growth inhibition zone at 100 ug/ml after 24 hr by cup plate method; assay type: functional; settings: ATCC 6633, 24 h, read-out: DIZ

[
  {
    "compound": "COc1ccc(-n2c(S)nnc2Sc2nnc(-c3ccccc3)n2-c2ccccc2)cc1",
    "testedTarget": "Bacillus subtilis",
    "zone of inhibition at 100 µg/mL": "5 mm"
  },
  {
    "compound": "Sc1nnc(Sc2nnc(-c3ccccc3)n2-c2ccccc2)n1-c1ccc(Cl)cc1",
    "testedTarget": "Bacillus subtilis",
    "zone of inhibition at 100 µg/mL": "16 mm"
  },
  {
    "compound": "CCOc1ccc(-n2c(S)nnc2CSc2nnc(-c3ccccc3)n2-c2ccccc2)cc1",
    "testedTarget": "Bacillus subtilis",
    "zone of inhibition at 100 µg/mL": "5 mm"
  },
  {
    "compound": "CCOc1ccc(-n2c(S)nnc2Sc2nnc(-c3ccccc3)n2-c2ccccc2)cc1",
    "testedTarget": "Bacillus subtilis",
    "zone of inhibition at 100 µg/mL": "5 mm"
  },
  {
    "compound": "CC1(C)S[C@@H]2[C@H](NC(=O)[C@H](N)c3ccccc3)C(=O)N2[C@H]1C(=O)O [AMPICILLIN]",
    "testedTarget": "Bacillus subtilis",
    "zone of inhibition at 100 µg/mL": "28 mm"
  },
  {
    "compound": "CC(C)n1c(S)nnc1Sc1nnc(-c2ccccc2)n1-c1ccccc1",
    "testedTarget": "Bacillus subtilis",
    "zone of inhibition at 100 µg/mL": "5 mm"
  },
  {
    "compound": "COc1ccc(-n2c(S)nnc2CSc2nnc(-c3ccccc3)n2-c2ccccc2)cc1",
    "testedTarget": "Bacillus subtilis",
    "zone of inhibition at 100 µg/mL": "21 mm"
  },
  {
    "compound": "Sc1nnc(CSc2nnc(-c3ccccc3)n2-c2ccccc2)n1-c1ccc(Cl)cc1",
    "testedTarget": "Bacillus subtilis",
    "zone of inhibition at 100 µg/mL": "16 mm"
  },
  {
    "compound": "Fc1ccc(-n2c(S)nnc2CSc2nnc(-c3ccccc3)n2-c2ccccc2)cc1",
    "testedTarget": "Bacillus subtilis",
    "zone of inhibition at 100 µg/mL": "21 mm"
  }
]

====

assay: Cytotoxicity against Homo sapiens (human) MDA231 cells assessed as inhibition of cell growth after 48 hr by MTT assay; type: functional, cell-based; details: MDA-MB-231, 48 h
pIC50: −log10 of the molar value.

[
  {
    "compoundSmiles": "Fc1ccc(-n2c(S)nnc2CSc2nnc(-c3ccccc3)n2-c2ccccc2)cc1",
    "pIC50": 4.57
  },
  {
    "compoundSmiles": "O=c1[nH]cc(F)c(=O)[nH]1",
    "pIC50": 5.57
  },
  {
    "compoundSmiles": "Fc1ccc(-n2c(S)nnc2Sc2nnc(-c3ccccc3)n2-c2ccccc2)cc1",
    "pIC50": 4.53
  },
  {
    "compoundSmiles": "Sc1nnc(CSc2nnc(-c3ccccc3)n2-c2ccccc2)n1-c1ccc(Cl)cc1",
    "pIC50": 4.30
  },
  {
    "compoundSmiles": "CCOc1ccc(-n2c(S)nnc2Sc2nnc(-c3ccccc3)n2-c2ccccc2)cc1",
    "pIC50": 4.36
  },
  {
    "compoundSmiles": "Sc1nnc(Sc2nnc(-c3ccccc3)n2-c2ccccc2)n1-c1ccc(Cl)cc1",
    "pIC50": 4.30
  },
  {
    "compoundSmiles": "Sc1nnc(CSc2nnc(-c3ccccc3)n2-c2ccccc2)n1-c1ccccc1",
    "pIC50": 5.07
  },
  {
    "compoundSmiles": "COc1ccc(-n2c(S)nnc2CSc2nnc(-c3ccccc3)n2-c2ccccc2)cc1",
    "pIC50": 4.54
  },
  {
    "compoundSmiles": "Sc1nnc(Sc2nnc(-c3ccccc3)n2-c2ccccc2)n1-c1ccccc1",
    "pIC50": 4.46
  }
]
